Taken from patent US20230295324A1.

Form field: EC50, HEK293/OX40/NF-kb luciferase reporter (one value per entry).
TARGET ENTITY: T1, human OX40 on cells (CHO-K1/hu OX40) (human, UniProt P43489 29-277)
T1 sequence (looked up): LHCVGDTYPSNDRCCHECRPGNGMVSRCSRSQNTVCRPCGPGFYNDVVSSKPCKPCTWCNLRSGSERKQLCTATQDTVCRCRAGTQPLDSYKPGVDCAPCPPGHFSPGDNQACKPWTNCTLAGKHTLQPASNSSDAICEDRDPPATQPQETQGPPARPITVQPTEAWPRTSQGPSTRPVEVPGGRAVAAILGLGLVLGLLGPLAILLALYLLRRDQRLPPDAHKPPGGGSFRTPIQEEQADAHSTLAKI
METHOD DESCRIPTION: cell-based or functional assay
The figure you give is taken to be in µM; do not add the unit.

Sample answers from the record:
- PR002060 (antibody, human IgG1, V domains shown, no light chain; also called anti-OX40 HCAb antibody) VH: EVQLLESGGGLVQPGGSLRLSCAASGFTFSDYAMSWVRQAPGKGLEWVSAISGRGGSTYYADSVRGRFTISRDNSKNTLYLQMTSLRAEDTAVYYCANGMTGTTDVDYWGQGTLVTVSS: 0.0151
- PR002066 (antibody, human IgG1, V domains shown, no light chain; also called anti-OX40 HCAb antibody) VH: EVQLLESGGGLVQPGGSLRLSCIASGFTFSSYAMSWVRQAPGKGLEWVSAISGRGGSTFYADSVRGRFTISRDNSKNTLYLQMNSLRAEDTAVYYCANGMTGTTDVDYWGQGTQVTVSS: 0.00545
- PR002057 (antibody, human IgG1, V domains shown, no light chain; also called anti-OX40 HCAb antibody) VH: EVQLLESGGGLVQPGGSLRLSCAASGFIFSSYAMSWVRQAPGKGLEWVSAISGGGGSTFYADSVRGRFTISRDNSKNTLYLQMNSLRAEDTAVYYCADGMTGTTDVDYWGQGTLVTVSS: 0.0143

Turning to the following binder.
Quick note, EC50, HEK293/OX40/NF-kb luciferase reporter for PR002065 (antibody, human IgG1, V domains shown, no light chain; also called anti-OX40 HCAb antibody) VH: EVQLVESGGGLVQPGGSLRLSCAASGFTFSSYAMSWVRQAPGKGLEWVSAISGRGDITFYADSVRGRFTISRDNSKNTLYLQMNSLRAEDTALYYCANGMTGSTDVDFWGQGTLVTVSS landed at 0.00855
